Test system: CD2F1 mice, L1210 leukemia ip, survival T/C
Test: NCI In Vivo Anticancer Drug Screen. Data for tumor model L1210 Leukemia (intraperitoneal) in CD2F1 (CDF1) mice
Conditions: endpoint: mean survival time; dose: 400.0 mg/kg/injection; schedule: Q01DX001 (ip); vehicle: saline; higher = longer survival
Inconclusive results and toxic doses are left out.

Compound	T/C
C=CC1CN2CCC1CC2C(O)c1ccnc2ccc(OC)cc12 (centres undefined) (tested in a mixture with another compound)	89 % of control
[Se]=[P+](OC1CCCCC1)OC1CCCCC1	92 % of control
Cc1cc2cc3c(=O)[nH]c(=O)nc-3n(CC(O)C(O)C(O)CO)c2cc1C (centres undefined)	98 % of control
O=P(OCCCl)(OCCCl)C(Cl)Cl	97 % of control
O=C(/C=C/c1ccco1)c1cccnc1	100 % of control
ICC1CCC(CI)CC1 (centres undefined)	93 % of control
O=S(=O)(SC1=NCCN1)c1ccccc1	101 % of control
CC(=O)N1CCCC2=C1CCCCCC2	93 % of control
CC(=O)OCCC/C(=C/c1c[nH]c2ccccc12)[N+](=O)[O-]	109 % of control
Nc1ncnc2c1ncn2CCC(CO)CO	107 % of control
C(=N\C(/N=C/c1ccccc1)c1ccccc1)/c1ccccc1	106 % of control
OCC(O)C1OC(OC2CCCCC2)C(O)C(O)C1O (centres undefined)	96 % of control
CCOC(=O)C(Cc1ccccc1)P(=O)(OCC)OCC (centres undefined)	100 % of control
O=C(CBr)c1cc(-c2ccccc2)nc2c(Cl)cc(Cl)cc12	97 % of control

* * *

Test system: CD2F1 mice, L1210 leukemia ip, survival T/C
Assay: NCI In Vivo Anticancer Drug Screen. Data for tumor model L1210 Leukemia (intraperitoneal) in CD2F1 (CDF1) mice
Details: endpoint: mean survival time; dose: 400.0 mg/kg/injection; schedule: Q01DX009 (ip); vehicle: Klucel (hydroxypropylcellulose) (HPC); higher = longer survival
Toxic doses and inconclusive results are not listed.

Compound	T/C
CC(C)=NNS(=O)(=O)c1ccc(C)cc1	91 % of control
O=C(COc1ccccc1)N(/N=C/c1ccccc1)C(=O)c1ccccc1	89 % of control
CC(=O)N(C)c1ccc(NC(=O)Nc2ccc(C)cc2[N+](=O)[O-])cc1	92 % of control
O=C(N/N=C/c1ccccc1)c1ccc(Cl)cc1Cl	91 % of control
COc1ccc(C(=O)CC(=O)Nc2ccc([N+](=O)[O-])cc2)cc1	97 % of control
CC(=O)OC1C(OC(C)=O)C(OC(C)=O)C(OS(C)(=O)=O)C(OC(=O)c2ccccc2)C1OC(C)=O (stereo unspecified)	91 % of control

* * *

Test system: CD2F1 mice, L1210 leukemia ip, survival T/C
Test: NCI In Vivo Anticancer Drug Screen. Data for tumor model L1210 Leukemia (intraperitoneal) in CD2F1 (CDF1) mice
Settings: endpoint: mean survival time; dose: 400.0 mg/kg/injection; schedule: Q04DX003 (ip); vehicle: saline sonified; higher = longer survival
Method: The antitumor activity of compounds was measured in mice bearing transplantable tumors. Survival or tumor size were measured and the results are expressed as the measurement made in the treated group (T) divided by the measurement made in the vehicle treated control group (C). The tumor model used in this assay is L1210 Leukemia (intraperitoneal) in CD2F1 (CDF1) mice
Toxic doses and inconclusive results are not listed.
# maps each entry to its T/C
Quantity name: T/C

Compound	Result
O=c1c2cccc3c2-c2c4c(cccc14)c(O)c1cccc(c3=O)c21	92 % of control
N#CC(/C=C/c1ccccc1)Nc1ccccc1C(N)=O (stereo unspecified)	97 % of control
COC(OC)c1[nH]c(=S)[nH]c(=O)c1Cc1cccc(Cl)c1	108 % of control
CS(=O)(=O)c1cccnn1	96 % of control
CC(=O)C1CC2c3ccccc3C1c1ccccc12 (stereo unspecified)	91 % of control
Cc1cccc2c1-c1c(C)cccc1CSC2	93 % of control
